target: Acetylcholinesterase (Homo sapiens) (UniProt P22303); experiment: Acetylcholinesterase (AChE) small molecule antagonists: enzyme-based qHTS assay (AID 1347397); settings: AChE enzyme activity inhibition; series mostly up to 115 µM; also: nearly all actives have a fitted effect of over 55% in size
Sequence (P22303 whole entry, looked up): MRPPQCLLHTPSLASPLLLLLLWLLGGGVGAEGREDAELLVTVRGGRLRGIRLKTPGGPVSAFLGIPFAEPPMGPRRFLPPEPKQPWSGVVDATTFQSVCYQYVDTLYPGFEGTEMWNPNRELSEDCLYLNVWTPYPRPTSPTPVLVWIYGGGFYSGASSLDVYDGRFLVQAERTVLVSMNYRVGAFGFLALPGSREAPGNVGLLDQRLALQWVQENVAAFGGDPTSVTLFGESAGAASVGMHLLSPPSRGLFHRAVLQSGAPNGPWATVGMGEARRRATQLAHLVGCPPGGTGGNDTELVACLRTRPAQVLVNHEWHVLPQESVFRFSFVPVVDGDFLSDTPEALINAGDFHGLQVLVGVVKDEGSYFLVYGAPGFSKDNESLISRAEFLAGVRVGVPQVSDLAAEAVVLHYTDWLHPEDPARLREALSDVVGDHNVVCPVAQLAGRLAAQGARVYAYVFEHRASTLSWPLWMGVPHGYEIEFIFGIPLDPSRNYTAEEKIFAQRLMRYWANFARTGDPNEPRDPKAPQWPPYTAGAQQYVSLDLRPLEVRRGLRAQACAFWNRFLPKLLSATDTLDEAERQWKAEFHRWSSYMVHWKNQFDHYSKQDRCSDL
Calls of active or inactive are those of the source. Calls follow the shape of the full dose curve.
Respond only with the outcome that fits, drawn from y = active, n = inactive

# input So what was the verdict on "O[C@@H]1CO[C@H]2[C@@H]1OC[C@@H]2O" in this test?
# output n

# input Also CCC1OCC(COc2ccc(Oc3ccccc3)cc2)O1 (stereo not given) ?
# output n

# input Also "CCN(CC)c1ccc(C(=O)c2ccccc2C(=O)O)c(O)c1" ?
# output n

# input Also "CCCCC/C(C=O)=C\c1ccccc1" ?
# output n

# input Also "CCCCCCCCCCCCCCCO" ?
# output n

# input Also CN1C(CSCC(F)(F)F)Nc2cc(Cl)c(S(N)(=O)=O)cc2S1(=O)=O (stereo not given) ?
# output n

# input Also "OCC(CO)(CO)CO" ?
# output n

# input Also "O=C1NC(=O)c2ccccc21" ?
# output n

# input Also CC1(C)S[C@@H]2[C@H](NC(=O)Cc3ccccc3)C(=O)N2[C@H]1C(=O)O (tested in a mixture with another compound) ?
# output n

# input Also "C=C[Si](OC)(OC)OC" ?
# output n

# input Also "Nc1ccc(S(=O)(=O)c2ccc(N)cc2)cc1" ?
# output n

# input Also "O=C(O)c1ccc2cc(C(=O)O)ccc2c1" ?
# output n

# input Also CCN(CC)CC1CCCCN1CC(=O)N1c2ccccc2C(=O)Nc2cccnc21 (stereo not given) ?
# output n

# input Also "OCCCCCO" ?
# output n

# input Also "BrCCOc1ccccc1" ?
# output n

# input Also COCC(C)O (stereo not given) ?
# output n

# input Also "CC(=O)c1cc2ccccc2s1" ?
# output n

# input Also "CCOc1ccc2nc(S(N)(=O)=O)sc2c1" ?
# output n

# input Also CC1=C(C(=O)OC(C)C)C(c2cccc([N+](=O)[O-])c2)C(C(=O)OC2CN(C(c3ccccc3)c3ccccc3)C2)=C(N)N1 (stereo not given) ?
# output n

# input Also "N#CCC(=O)NN" ?
# output n

# input Also "c1ccc(COCc2ccccc2)cc1" ?
# output n

# input Also "COc1ccc(OC)c(NC(=O)CC(C)=O)c1" ?
# output n

# input Also "CN[C@@H]1[C@H](O)[C@H](NC)[C@H]2O[C@@]3(O)C(=O)C[C@@H](C)O[C@H]3O[C@@H]2[C@H]1O" ?
# output n

# input Also "CN1C[C@H](C(=O)N[C@]2(C)O[C@@]3(O)[C@@H]4CCCN4C(=O)[C@H](Cc4ccccc4)N3C2=O)C[C@@H]2c3cccc4[nH]cc(c34)C[C@H]21" ?
# output y

# input Also "CS(=O)(=O)OCCCCOS(C)(=O)=O" ?
# output n

# input Also "C1COCO1" ?
# output n

# input Also "CCCCCC/C=C/C=O" ?
# output n

# input Also "CCCCNC(=S)NCCCC" ?
# output n

# input Also "Cc1c(N(C)C)c(=O)n(-c2ccccc2)n1C" ?
# output n

# input Also "COC(=O)[C@H]1[C@H]2C[C@@H]3c4[nH]c5cc(OC)ccc5c4CCN3C[C@H]2C[C@@H](OC(=O)c2cc(OC)c(OC)c(OC)c2)[C@@H]1OC" ?
# output n

# input Also "CC(C)OC(=O)c1ccccc1" ?
# output n

# input Also Cn1cc(S(C)=O)c(=O)c2ccc(F)cc21 (stereo not given) ?
# output n

# input Also "CCC(=O)Nc1cccc(N)c1" ?
# output n

# input Also "CC(=O)OCC(=O)[C@@]1(O)CC[C@H]2[C@@H]3CCC4=CC(=O)C=C[C@]4(C)[C@H]3[C@@H](O)C[C@@]21C" ?
# output n

# input Also "CN(C)C(=O)C1(N2CCCCC2)CCN(CC[C@@]2(c3ccc(Cl)c(Cl)c3)CN(C(=O)c3ccccc3)CCO2)CC1" ?
# output y

# input Also "CCCOC(C)=O" ?
# output n

# input Also "CC#N" ?
# output n

# input Also C=CC(C)(CCC=C(C)C)OC(=O)c1ccccc1 (stereo not given) ?
# output n

# input Also "COC(=O)CCCCC(=O)O" ?
# output n

# input Also "NS(=O)(=O)c1cc2c(cc1Cl)CN(C1CCCCC1)C2=O" ?
# output n

# input Also "NC(=O)Cc1cccc2ccccc12" ?
# output n

# input Also "C[C@@H]1CCN(C(=O)[C@H](CCCN=C(N)N)NS(=O)(=O)c2cccc3c2NC[C@H](C)C3)[C@@H](C(=O)O)C1" ?
# output n

# input Also "O=C(O)c1cc(=O)[nH]c(=O)[nH]1" ?
# output n

# input Also "Cc1ccc(C(C)C)cc1O" ?
# output n

# input Also CCC(C(=O)OCCN1CCOC(c2ccccc2)C1C)c1ccccc1 (stereo not given) ?
# output n

---

biological target: Acetylcholinesterase (Homo sapiens) (UniProt P22303); test: Acetylcholinesterase (AChE) small molecule antagonists: fluorescence cell-based qHTS assay (AID 1347398); settings: SH-SY5Y cells; AChE activity; series mostly up to 115 µM; also: nearly all actives have a fitted effect of over 50% in size
Records with an inconclusive call do not appear. Calls of active or inactive are those of the source. Calls follow the shape of the full dose curve.
observable: outcome

- CCCCOCCO: inactive
- O=C1CCCc2ccccc21: inactive
- C[C@@]12C(=O)OC(=O)[C@]1(C)C1CCC2O1: inactive
- Cc1ccc(/C(=C\CN2CCCC2)c2ccccn2)cc1: inactive
- C/C=C/C(=O)OCC(C)C: inactive
- O=C(O)c1cccc(Cl)c1Cl: inactive

# input Please provide the recorded outcome for "COc1ccc(C(=O)c2cccc(O)c2)c(OC)c1" , tested on Acetylcholinesterase (Homo sapiens) (UniProt P22303).
# output inactive

# input Also "CC(C)(O)c1ccc(CNC(=O)c2cccnc2Oc2ccc3nonc3c2)cc1" ?
# output inactive

---

experiment: A CellTox Green Cytotoxicity Assay to monitor cytotoxicity in HepG2 cells - 16 hour (AID 1224876); settings: CellTox Green fluorescence; series mostly up to 76.8 µM; also: nearly all actives have a fitted effect of over 45% in size
Records with an inconclusive call do not appear. Activity calls are given as the source filed them. The call rests on the fitted dose curve; in most records, active means well fitted activation curve with a large enough effect in the repeat runs; inconclusive means weak or mixed curves; inactive means flat fitted curve, though single readings scatter.
Respond only with the outcome that fits, drawn from YES (active), NO (inactive)

# input So what was the verdict on "O=C(Nc1ccccc1-c1ccc(Cl)cc1)c1cccnc1Cl" in this test?
# output YES

# input Also "CO/C=C(/C(=O)OC)c1ccccc1Oc1cc(Oc2ccccc2C#N)ncn1" ?
# output NO

# input Also "Oc1c(I)cc(I)cc1I" ?
# output NO

# input Also "CN1CSC(=S)N(C)C1" ?
# output NO

# input Also "C[C@]12CC[C@@H](O)C[C@@H]1CC[C@@H]1[C@@H]2CC[C@]2(C)C(=O)CC[C@@H]12" ?
# output NO

# input Also "COc1cc(OC)c(OC)cc1C=O" ?
# output NO

# input Also "OCC(c1ccc(Cl)cc1)c1ccc(Cl)cc1" ?
# output YES

# input Also "CNC(=O)Oc1cc(C)c(SC)c(C)c1" ?
# output NO

# input Also "O=C1C(I)=CC(=C(c2cc(I)c(O)c(I)c2)c2ccccc2C(=O)O)C=C1I" ?
# output NO

# input Also "CCOC(=O)C(O)(c1ccc(Cl)cc1)c1ccc(Cl)cc1" ?
# output NO

# input Also "O=C(c1ccccc1)C(Cl)Cl" ?
# output NO

---

biological target: Acetylcholinesterase (Homo sapiens); assay: Acetylcholinesterase (AChE) small molecule antagonists: enzyme-based qHTS assay (AID 1347397); settings: AChE enzyme activity inhibition; series mostly up to 115 µM; also: nearly all actives have a fitted effect of over 55% in size
Activity calls are given as the source filed them. Calls come from the whole dose curve.
Respond only with the outcome that fits, drawn from t (active), f (inactive)

# input So what was the verdict on "CCCCCCCCCCCCCCCCC(=O)O" in this test?
# output f

# input Also "Cc1cc2nc(N)sc2cc1C" ?
# output f

# input Also "CC(C)(C)c1ccc(O)c(O)c1" ?
# output f

# input Also "NC(=O)/N=N/C(N)=O" ?
# output t

# input Also "[Cl][Bi]([Cl])([c]1ccccc1)([c]1ccccc1)[c]1ccccc1" ?
# output f

# input Also "NCCCN1CCN(CCCN)CC1" ?
# output f

# input Also "CNc1ncnc2nc[nH]c12" ?
# output f

# input Also "Cc1cc(CCCOc2c(C)cc(-c3noc(C(F)(F)F)n3)cc2C)on1" ?
# output f

# input Also CCC(C)n1ncn(-c2ccc(N3CCN(c4ccc(OC[C@H]5CO[C@](Cn6cncn6)(c6ccc(Cl)cc6Cl)O5)cc4)CC3)cc2)c1=O (stereo not given in full) ?
# output f

# input Also "OCc1ccc(Cl)cc1Cl" ?
# output f

# input Also "O=C1CCCCCCCCCCCCCCO1" ?
# output f

# input Also "CN(N=O)C(=O)N[C@@H]1[C@@H](O)[C@H](O)[C@@H](CO)O[C@@H]1O" ?
# output f

# input Also "CCCCCCCCO" ?
# output f

# input Also "CN1CSC(=S)N(C)C1" ?
# output f

# input Also "CCN(Cc1cccc(S(=O)(=O)O)c1)c1ccccc1" ?
# output f

# input Also "CN(C)c1cc(NC(=O)CNC(C)(C)C)c(O)c2c1C[C@H]1C[C@H]3[C@H](N(C)C)C(=O)C(C(N)=O)=C(O)[C@@]3(O)C(=O)C1=C2O" ?
# output f

# input Also "CC(=O)CC(C)(C)O" ?
# output f

# input Also "CN(C)CCN1CCOCC1" ?
# output f

# input Also "O=S(=O)(Oc1ccc(Cl)cc1Cl)c1ccccc1" ?
# output f

# input Also "O=C(O)CCNC(=O)c1ccc(N=Nc2ccc(O)c(C(=O)O)c2)cc1" ?
# output f
